# Assay procedure: In vitro liver microsome stability, human
# Format: in vitro ADME
# Conditions used: human liver microsomes
Measured attribute: human half-life (h)

Structure: Cn1cnc(-c2cc(P3(=O)CCNCC3)ccc2Nc2ccc(C(F)(F)F)cc2)c1
human half-life [h]: 5.98

P = CP(C)(=O)c1ccc(Nc2ccc(C(F)(F)F)cc2)c(-c2nccc(N3CC[C@H](O)C3)n2)c1
Q = CP(C)(=O)c1ccc(NCc2ccc(C(F)(F)F)cc2)c(-c2nccc(OC3COC3)n2)c1
*Q* I need your help: which of the pair P , Q has higher human half-life? Refer to your chosen entry by its label in the reply.
*A* Q

---

# System name: recombinant TEAD4 protein (217-434, Uniprot ID: Q15561) (Homo sapiens (Human), UniProt Q15561)
# Sequence (Q15561 217-434): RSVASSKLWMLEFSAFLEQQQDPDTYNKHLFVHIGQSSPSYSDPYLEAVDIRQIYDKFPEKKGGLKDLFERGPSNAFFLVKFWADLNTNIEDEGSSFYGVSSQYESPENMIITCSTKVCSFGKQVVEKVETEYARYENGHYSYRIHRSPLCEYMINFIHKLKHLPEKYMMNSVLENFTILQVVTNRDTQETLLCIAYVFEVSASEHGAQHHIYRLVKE
# Assay procedure: Thermal shift assay (protein melting point curve), TEAD4
# Type: binding
# Conditions used: 10 μM TEAD protein, 50 μM test compound
Measured attribute: Δ T m (TEAD4)

// below: answered compounds
Compound: CP(C)(=O)c1ccc(Nc2ccc(C(F)(F)F)cc2)c(-c2ncn(C3CCOCC3)n2)c1 [Compound 34]
Data value: ++
--
Compound: CP(C)(=O)c1ccc(Nc2ccc(C(F)(F)F)cc2)c(-c2nnc(CO)o2)c1 [Compound 11]
Data value: ++
--
Compound: CP(C)(=O)c1ccc(Nc2ccc(C(F)(F)F)cc2)c(-c2cnn(CC3COC3)c2)c1 [Compound 16]
Data value: +++
--
Compound: CP(C)(=O)c1ccc(Nc2ccc(C(F)(F)F)cc2)c(-c2csc(OC3COC3)n2)c1 [Compound 71]
Data value: ++
--
Compound: Cn1cnc(-c2cc(P(C)(C)=O)ccc2NC2CCC(C(F)(F)F)CC2)c1 (centres unmarked) [Compound 63]
Data value: +++

*Q* Tell me the measured Δ T m (TEAD4) of CP(C)(=O)c1ccc(Nc2ccc(C(F)(F)F)cc2)c(-c2cn(C3COC3)cn2)c1 [Compound 70] , please.
*A* ++

*Q* Tell me the measured Δ T m (TEAD4) of CP(C)(=O)c1ccc(Nc2ccc(C(F)(F)F)cc2)c(-c2cnn(C3CCOCC3)c2)c1 [Compound 51] , please.
*A* ++

*Q* Tell me the measured Δ T m (TEAD4) of CP(C)(=O)c1ccc(NC2CCC(F)(F)CC2)c(-c2nccc(OC3COC3)n2)c1 [Compound 30] , please.
*A* ++
